- TEST_SYSTEM: T1, NK2 receptor (Homo sapiens, UniProt P21452)
- T1 chain: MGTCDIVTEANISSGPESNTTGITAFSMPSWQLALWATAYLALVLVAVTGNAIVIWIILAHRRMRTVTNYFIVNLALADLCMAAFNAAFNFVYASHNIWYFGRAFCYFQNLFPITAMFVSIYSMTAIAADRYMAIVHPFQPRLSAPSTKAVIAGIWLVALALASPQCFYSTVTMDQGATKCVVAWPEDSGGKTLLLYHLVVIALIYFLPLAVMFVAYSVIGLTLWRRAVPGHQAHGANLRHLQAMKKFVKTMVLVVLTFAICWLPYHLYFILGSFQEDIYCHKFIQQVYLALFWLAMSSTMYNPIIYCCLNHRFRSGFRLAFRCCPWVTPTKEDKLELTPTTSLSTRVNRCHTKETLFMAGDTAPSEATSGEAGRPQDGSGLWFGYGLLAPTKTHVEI
- MEASUREMENT_PROTOCOL: [125I]-NKA displacement
Non-standard residues stand in square brackets, D forms with d. No end group written: not given here. NMeL = CN[C@@H](CC(C)C)C(=O)O

BINDER: DKFVG[NMeL]M-NH2 [[Lys5,MeLeu9]-NKA(4-10)]
Ki, nM: 0.2
//
BINDER: DRFVG[NMeL]M-NH2 (N-terminus assumed; SMILES CSCC[C@H](NC(=O)[C@H](CC(C)C)N(C)C(=O)CNC(=O)[C@@H](NC(=O)[C@H](Cc1ccccc1)NC(=O)[C@H](CCCNC(=N)N)NC(=O)[C@@H](N)CC(=O)O)C(C)C)C(N)=O) [[Arg5,MeLeu9]-NKA(4-10)]
Ki, nM: 0.12
//
BINDER: DSFVGLM-NH2 [NKA(4-10)]
Ki, nM: 2.3
//
BINDER: DRFVGLM-NH2 [[Arg5]-NKA(4-10)]
Ki, nM: 0.31
